# MEASURED_TARGET: CYP2C9 (Homo sapiens, UniProt P11712)
# Sequence (P11712 whole entry): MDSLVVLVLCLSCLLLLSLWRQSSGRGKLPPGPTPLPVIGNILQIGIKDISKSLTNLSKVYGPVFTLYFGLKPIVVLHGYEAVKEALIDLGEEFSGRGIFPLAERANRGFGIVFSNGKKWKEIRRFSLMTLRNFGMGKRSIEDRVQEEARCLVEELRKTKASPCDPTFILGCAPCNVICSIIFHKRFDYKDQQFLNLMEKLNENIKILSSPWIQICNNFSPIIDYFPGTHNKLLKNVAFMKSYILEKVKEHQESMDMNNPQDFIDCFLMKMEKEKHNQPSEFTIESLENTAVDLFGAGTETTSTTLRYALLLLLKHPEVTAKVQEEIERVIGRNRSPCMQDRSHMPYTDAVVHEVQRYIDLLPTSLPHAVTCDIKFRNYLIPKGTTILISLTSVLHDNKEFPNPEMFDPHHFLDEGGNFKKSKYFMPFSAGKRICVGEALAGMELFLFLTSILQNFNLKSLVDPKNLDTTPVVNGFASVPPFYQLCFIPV
# ASSAY_DETAILS: Inhibition of human recombinant CYP2C9 expressed in baculovirus infected insect cells using OOMR as substrate at 10 uM in presence of NADPH by fluorimetric analysis relative to control
# Type: ADME
# CONDITIONS_USED: probe OOMR
Listing: inhibition at 10 µM of selected molecules
Numbers only here, please. The scale is %.

INSERT INTO measurements (smiles_record, result_units, observed_measurement) VALUES
  ('CCc1nc(-c2ccc(F)cc2)c(-c2ccnc(NC(=O)C3CC3)c2)[nH]1', '%', 83.6);

Attention now turns to another entry.
QUERY: What value of inhibition at 10 µM has been recorded for this entry: `CSc1nc(-c2ccc(F)cc2)c(-c2ccnc(NC(=O)C3CC3)c2)[nH]1`
RESULT: 77.7

###

# MEASURED_TARGET: Mitogen-activated protein kinase 14 (Homo sapiens, UniProt Q16539)
# Sequence (Q16539 whole entry): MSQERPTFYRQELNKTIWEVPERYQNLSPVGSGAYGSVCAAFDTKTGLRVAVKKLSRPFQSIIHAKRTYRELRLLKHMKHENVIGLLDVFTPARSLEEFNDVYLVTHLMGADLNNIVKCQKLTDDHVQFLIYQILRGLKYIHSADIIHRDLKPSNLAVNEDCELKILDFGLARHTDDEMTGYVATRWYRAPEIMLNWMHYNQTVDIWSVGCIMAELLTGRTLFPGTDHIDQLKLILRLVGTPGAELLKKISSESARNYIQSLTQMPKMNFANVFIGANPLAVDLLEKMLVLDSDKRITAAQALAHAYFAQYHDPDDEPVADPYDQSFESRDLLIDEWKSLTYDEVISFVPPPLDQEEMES
# ASSAY_DETAILS: Inhibition of p38alpha MAPK (unknown origin) using ATF-2 as substrate after 1 hr by ELISA
pIC50 reference
Scale note: pIC50 = -log10(concentration in M).

INSERT INTO measurements (molecule, assay_readout, observed_measurement) VALUES
  ('O=C(Nc1cc(-c2[nH]c(CCc3ccccc3)nc2-c2ccc(F)cc2)ccn1)C1CC1', 'pIC50', 7.70),
  ('C[S+]([O-])c1nc(-c2ccc(F)cc2)c(-c2ccnc(NC(=O)C3CCC3)c2)[nH]1 (centres undefined)', 'pIC50', 7.54),
  ('O=C(Nc1cc(-c2[nH]c(Cc3ccccc3)nc2-c2ccc(F)cc2)ccn1)C1CC1', 'pIC50', 7.74),
  ('CSc1nc(-c2ccnc(NC(=O)C3CC3)c2)c(-c2ccc(F)cc2)n1C', 'pIC50', 5.80),
  ('CSc1nc(-c2ccc(F)cc2)c(-c2ccnc(NC(=O)C3(C(F)(F)F)CC3)c2)[nH]1', 'pIC50', 6.74);

QUERY: Given the entry `O=C(Nc1cc(-c2[nH]c(-c3ccco3)nc2-c2ccc(F)cc2)ccn1)C1CC1` , report its measured pIC50.
RESULT: 7.74

QUERY: Please give the measured pIC50 for this molecule: `CSc1nc(-c2ccc(F)cc2)c(-c2ccnc(NC(C)=O)c2)[nH]1`
RESULT: 7.35

QUERY: Recorded pIC50 for `O=C(Nc1cc(-c2[nH]c(SCc3ccccc3)nc2-c2ccc(F)cc2)ccn1)C1CC1` , please?
RESULT: 7.39

QUERY: GET /values?readout=pIC50&item= `CSc1nc(-c2ccc(F)cc2)c(-c2ccnc(NC(=O)Cc3ccc(C(F)(F)F)cc3)c2)[nH]1`
RESULT: 7.54

QUERY: # pIC50 lookup, item `CSc1nc(-c2ccc(F)cc2)c(-c2ccnc(NC(=O)c3ccoc3)c2)[nH]1`
RESULT: 7.66

QUERY: // returns reported pIC50 for input `CSc1nc(-c2ccc(F)cc2)c(-c2ccnc(NC(=O)c3ccccn3)c2)[nH]1`
RESULT: 7.38

###

# MEASURED_TARGET: Glycogen synthase kinase-3 beta (Homo sapiens, UniProt P49841)
# Sequence (P49841 whole entry): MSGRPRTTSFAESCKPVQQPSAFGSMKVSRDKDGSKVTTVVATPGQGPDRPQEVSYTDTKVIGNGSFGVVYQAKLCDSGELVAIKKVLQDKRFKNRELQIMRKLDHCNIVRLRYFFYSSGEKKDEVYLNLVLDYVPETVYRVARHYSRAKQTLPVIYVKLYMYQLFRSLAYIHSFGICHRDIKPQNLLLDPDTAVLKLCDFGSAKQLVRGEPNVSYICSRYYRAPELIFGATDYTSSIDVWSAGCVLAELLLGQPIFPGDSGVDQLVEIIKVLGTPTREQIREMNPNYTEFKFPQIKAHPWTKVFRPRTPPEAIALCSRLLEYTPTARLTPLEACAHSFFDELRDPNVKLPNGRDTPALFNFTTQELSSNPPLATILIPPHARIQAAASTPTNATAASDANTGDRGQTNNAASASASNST
# ASSAY_DETAILS: Competitive inhibition of human recombinant full length GSK3beta using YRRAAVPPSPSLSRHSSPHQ(pS)EDEEE as substrate preincubated with enzyme for 10 mins followed by substrate and 25 uM ATP addition measured after 60 mins by ADP-Glo luminescence assay
Overview of reported pIC50 across a group of molecules:
Please keep in mind that pIC50 is minus log10 of the molar concentration; only the number is needed.

INSERT INTO assay_data (molecule, observed_measurement) VALUES
  ('CSc1nc(-c2ccc(F)cc2)c(-c2ccnc(NC(=O)C3CC(=O)C3)c2)[nH]1', 6.74);

Now look at this one.
QUERY: Returns the measured pIC50 for the input molecule. Input: CSc1nc(-c2ccc(F)cc2)c(-c2ccnc(NC(=O)C3CCCO3)c2)[nH]1 (stereo not given)
RESULT: 6.28

###

# MEASURED_TARGET: CYP2D6 (Homo sapiens, UniProt P10635)
# Sequence (P10635 whole entry): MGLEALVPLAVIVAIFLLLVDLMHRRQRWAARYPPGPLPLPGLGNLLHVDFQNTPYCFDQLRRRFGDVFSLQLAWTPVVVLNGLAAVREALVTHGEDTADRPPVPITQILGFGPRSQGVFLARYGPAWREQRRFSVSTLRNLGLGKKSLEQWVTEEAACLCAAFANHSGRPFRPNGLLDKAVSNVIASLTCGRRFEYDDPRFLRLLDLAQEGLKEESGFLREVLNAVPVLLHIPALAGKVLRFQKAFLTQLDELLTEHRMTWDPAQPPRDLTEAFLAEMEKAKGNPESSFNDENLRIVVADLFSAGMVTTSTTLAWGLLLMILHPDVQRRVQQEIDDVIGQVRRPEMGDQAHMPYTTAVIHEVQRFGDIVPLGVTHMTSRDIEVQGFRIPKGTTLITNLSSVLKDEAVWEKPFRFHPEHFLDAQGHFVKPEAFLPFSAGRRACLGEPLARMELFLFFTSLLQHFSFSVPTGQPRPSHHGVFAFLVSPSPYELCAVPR
# ASSAY_DETAILS: Inhibition of human recombinant CYP2D6 expressed in baculovirus infected insect cells using EOMCC as substrate at 10 uM in presence of NADPH by fluorimetric analysis relative to control
# Type: ADME
# CONDITIONS_USED: probe EOMCC
ASSAY_READOUT: inhibition at 10 µM (%)
State the answer as a number, implicitly in %.

QUERY: Dear colleague, I am looking for the recorded inhibition at 10 µM of the following compound: `CSc1nc(-c2ccc(F)cc2)c(-c2ccnc(NC(=O)C3CC3)c2)[nH]1`
RESULT: 14.6

###

# MEASURED_TARGET: hERG (KCNH2) (Homo sapiens, UniProt Q12809)
# Sequence (Q12809 whole entry): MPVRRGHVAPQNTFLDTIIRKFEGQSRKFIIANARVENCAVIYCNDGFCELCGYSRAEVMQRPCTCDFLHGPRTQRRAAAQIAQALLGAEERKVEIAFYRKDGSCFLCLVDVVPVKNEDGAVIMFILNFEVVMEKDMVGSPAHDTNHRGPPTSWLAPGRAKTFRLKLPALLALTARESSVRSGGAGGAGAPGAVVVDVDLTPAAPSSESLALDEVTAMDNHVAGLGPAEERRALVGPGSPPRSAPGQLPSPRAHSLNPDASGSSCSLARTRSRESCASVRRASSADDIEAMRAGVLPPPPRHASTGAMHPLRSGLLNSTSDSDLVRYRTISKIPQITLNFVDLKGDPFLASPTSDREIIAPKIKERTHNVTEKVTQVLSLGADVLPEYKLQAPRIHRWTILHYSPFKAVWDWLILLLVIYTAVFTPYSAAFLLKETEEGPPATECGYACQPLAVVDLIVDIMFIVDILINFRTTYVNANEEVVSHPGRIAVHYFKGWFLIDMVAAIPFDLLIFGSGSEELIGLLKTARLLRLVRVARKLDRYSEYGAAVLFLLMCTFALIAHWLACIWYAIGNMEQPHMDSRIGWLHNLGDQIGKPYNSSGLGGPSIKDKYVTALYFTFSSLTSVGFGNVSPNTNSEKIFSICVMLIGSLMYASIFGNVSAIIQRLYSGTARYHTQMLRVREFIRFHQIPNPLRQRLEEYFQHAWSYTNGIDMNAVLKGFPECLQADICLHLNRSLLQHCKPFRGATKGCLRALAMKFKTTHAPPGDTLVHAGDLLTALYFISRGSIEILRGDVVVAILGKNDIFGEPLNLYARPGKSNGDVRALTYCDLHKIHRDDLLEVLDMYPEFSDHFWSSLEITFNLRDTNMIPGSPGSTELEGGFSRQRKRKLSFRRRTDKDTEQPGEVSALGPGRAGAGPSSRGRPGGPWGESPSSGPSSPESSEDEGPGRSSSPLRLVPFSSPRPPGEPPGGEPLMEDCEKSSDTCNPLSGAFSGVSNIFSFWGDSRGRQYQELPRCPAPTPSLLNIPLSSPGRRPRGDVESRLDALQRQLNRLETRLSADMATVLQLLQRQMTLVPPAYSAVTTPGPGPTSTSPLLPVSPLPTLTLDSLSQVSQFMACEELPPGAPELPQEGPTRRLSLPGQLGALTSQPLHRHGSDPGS
# ASSAY_DETAILS: Inhibition of tracer Red binding to human ERG expressed in membranes at 10 uM after 4 hrs by fluorescence polarization assay relative to control
# CONDITIONS_USED: membranes expressing human ERG, probe tracer Red
Overview of recorded inhibition at 4 h, 10 µM for various compounds
All answers are understood in %, so give the number only.

INSERT INTO results (smiles_record, observed_measurement) VALUES
  ('CCc1nc(-c2ccc(F)cc2)c(-c2ccnc(NC(=O)C3CC3)c2)[nH]1', 43.3);

QUERY: Please look up its inhibition at 4 h, 10 µM: `CSc1nc(-c2ccc(F)cc2)c(-c2ccnc(NC(=O)C3CC3)c2)[nH]1`
RESULT: 30.1

###

# MEASURED_TARGET: Mitogen-activated protein kinase 14 (Homo sapiens, UniProt Q16539)
# ASSAY_DETAILS: Inhibition of p38alpha MAPK (unknown origin) using ATF-2 as substrate after 1 hr by ELISA
ASSAY_READOUT: log10 of IC50 (log10 of the value in nM)
Base-10 log of IC50, unit nM.

QUERY: Return reported log10 of IC50; argument: `COc1cccc(CCC(=O)Nc2cc(-c3[nH]c(SC)nc3-c3ccc(F)cc3)ccn2)c1`
RESULT: 1.56

QUERY: Can you share its log10 of IC50? I mean this compound: `CSc1nc(-c2ccc(F)cc2)c(-c2ccnc(NCC3CC3)c2)[nH]1`
RESULT: 1.15

QUERY: Data request, read-out log10 of IC50, for `CSc1nc(-c2ccc(F)cc2)c(-c2ccnc(NC(=O)CN3CCCC3=O)c2)[nH]1`
RESULT: 1.36

QUERY: Find the recorded log10 of IC50 belonging to `CSc1nc(-c2ccc(F)cc2)c(-c2ccnc(NC(=O)CC3CC3)c2)[nH]1` and report it.
RESULT: 1.18

QUERY: Would you mind telling me what log10 of IC50 value was observed for `COc1cc(CCC(=O)Nc2cc(-c3[nH]c(SCc4ccccc4)nc3-c3ccc(F)cc3)ccn2)cc(OC)c1OC` ?
RESULT: 1.79

QUERY: I'd like to know its log10 of IC50. The compound in question is `CSc1nc(-c2ccc(F)cc2)c(-c2ccnc(NC(=O)[C@H]3C[C@H](Cl)C3)c2)[nH]1`
RESULT: 1.58

QUERY: Record request: log10 of IC50 value, item `CC(=O)Nc1cc(-c2[nH]c(SCc3ccccc3)nc2-c2ccc(F)cc2)ccn1`
RESULT: 1.71

QUERY: Please report the recorded log10 of IC50 for `CSc1nc(-c2ccc(F)cc2)c(-c2ccnc(NC(=O)C3CC3)c2)n1C` .
RESULT: 2.35

###

# MEASURED_TARGET: Glycogen synthase kinase-3 beta (Homo sapiens)
# ASSAY_DETAILS: Competitive inhibition of human recombinant full length GSK3beta using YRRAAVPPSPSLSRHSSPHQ(pS)EDEEE as substrate preincubated with enzyme for 10 mins followed by substrate and 25 uM ATP addition measured after 60 mins by ADP-Glo luminescence assay
ASSAY_READOUT: IC50 (nM)
Field format: number, assumed nM, no unit text.

See these solved cases before continuing.
INSERT INTO results (smiles_record, observed_measurement) VALUES
  ('Cc1nc(-c2ccc(F)cc2)c(-c2ccnc(NC(=O)C3CC3)c2)[nH]1', 53),
  ('CSc1nc(-c2ccc(F)cc2)c(-c2ccnc(NC(=O)C3CCCC3)c2)[nH]1', 136);

Consider now this further molecule.
QUERY: Please provide the recorded IC50 for `CSc1nc(-c2ccc(F)cc2)c(-c2ccnc(NC(=O)[C@H]3C[C@H](Cl)C3)c2)[nH]1` , tested on Glycogen synthase kinase-3 beta (Homo sapiens).
RESULT: 395
